- experimental-system: T1, Smad7 PY peptide Ac-ELESPPPPYSRYPMD-NH2 (203-217) (human)
- T1 peptide: Ac-ELESPPPPYSRYPMD-NH2
- experiment-description: ITC
Some binders, each annotated with its measured pKd.
Hey, just a heads up that pKd is the negative log base 10 of the concentration in molar.

Below are worked cases with known answers.
binder	readout-label	test-result
YAP WW1-WW2 pair (domain or fragment) SSFEIPDDVPLPAGWEMAKTSSGQRYFLNHIDQTTTWQDPRKAMLSQMNVTAPTSPPVQQNMMNSASGPLPDGWEQAMTQDGEIYYINHKNKTTSWLDPRLDPR	pKd	5.01
DELGPLPPGWEVRSTVSGRIYFVDHNNRTTQFTDPRLH (domain or fragment, human, UniProt Q9HCE7-2 277-314, looked up) [Smurf1 WW2 domain (residues 277-314)]	pKd	5.39
Smurf1 WW1-WW2 pair (domain or fragment) SPELPEGYEQRTTVQGQVYFLHTQTGVSTWHDPRIPRDLNSVNCDELGPLPPGWEVRSTVSGRIYFVDHNNRTTQFTDPRLH	pKd	5.77
Smurf2 WW2-WW3 pair (domain or fragment) PPDLPEGYEQRTTQQGQVYFLHTQTGVSTWHDPRVPRDLSNINCEELGPLPPGWEIRNTATGRVYFVDHNNRTTQFTDPRLSAN	pKd	5.77

Give a short answer stating reported pKd for SSFEIPDDVPLPAGWEMAKTSSGQRYFLNHIDQTTTWQDPRKAM (domain or fragment, human, UniProt P46937 163-206, looked up) [YAP WW1 domain (residues 163-206)] . 5.16
